# Tested On: human PAD4 (Homo sapiens, UniProt Q9UM07)
# Construct: human PAD4 (NM_012387), A2-P663, was PCR amplified; His-SUMO (N, cleaved yes)
# Sequence (Q9UM07 2-663): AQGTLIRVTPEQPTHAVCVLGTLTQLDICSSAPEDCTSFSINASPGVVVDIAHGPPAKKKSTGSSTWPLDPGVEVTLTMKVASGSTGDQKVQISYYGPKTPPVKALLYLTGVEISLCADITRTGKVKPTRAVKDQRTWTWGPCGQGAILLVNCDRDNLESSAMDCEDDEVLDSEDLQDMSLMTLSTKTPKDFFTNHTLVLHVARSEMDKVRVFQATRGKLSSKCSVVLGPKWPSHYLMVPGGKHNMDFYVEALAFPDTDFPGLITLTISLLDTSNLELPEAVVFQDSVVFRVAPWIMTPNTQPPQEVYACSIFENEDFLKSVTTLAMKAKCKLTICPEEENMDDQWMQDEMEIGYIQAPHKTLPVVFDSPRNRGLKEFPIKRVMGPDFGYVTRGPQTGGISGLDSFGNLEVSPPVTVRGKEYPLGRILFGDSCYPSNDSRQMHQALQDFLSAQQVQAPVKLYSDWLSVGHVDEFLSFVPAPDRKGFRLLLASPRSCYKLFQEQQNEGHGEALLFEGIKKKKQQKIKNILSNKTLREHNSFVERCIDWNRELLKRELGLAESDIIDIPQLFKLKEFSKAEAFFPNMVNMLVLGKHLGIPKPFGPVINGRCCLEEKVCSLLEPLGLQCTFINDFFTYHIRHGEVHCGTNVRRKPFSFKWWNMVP
# Assay Text: In vitro PAD4 BAEE biochemical assay
# Condition: BAEE substrate 3 mM, 5 nM PAD4, 2 mM calcium chloride; geometric mean of multiple experiments
Test Readout: IC50 (nM)

# Structure Notation, Recorded Number
records = [
    ("COc1cc(C(=O)N2CCC[C@@H](N)C2)cc2nc(-c3cc4ccc5cc4n3CCCCCCC3(CC3)C(=O)N[C@@H]5C)n(C)c12", 77),
    ("COc1cc(C(=O)N2C[C@H](N)[C@@H]3CC[C@H]2C3)cc2nc(-c3cc4ccc5nc4n3CCCCCc3cc(Cl)ncc3C(=O)N[C@@H]5C)n(C3CC3)c12", 12),
    ("COc1cc(C(=O)N2C[C@H](N)CC[C@@H]2C)cc2nc(-c3cc4ccc5nc4n3CCCCCCC(C)(C)C(=O)N[C@@H]5C)n(C)c12", 76),
    ("C[C@H]1NC(=O)c2ccc(Cl)nc2CCCCCn2c(-c3nc4cc(C(=O)N5C[C@H](N)[C@@H]6CC[C@H]5C6)c(F)c(F)c4n3C3CC3)cc3ccc1nc32", 57),
    ("C[C@H]1NC(=O)c2ccc(Cl)nc2CC[C@H]2C[C@@H]2Cn2c(-c3nc4cc(C(=O)N5C[C@H](N)[C@@H]6CC[C@H]5C6)cc(F)c4n3C3CC3)cc3ccc1nc32", 26),
]

a = CC(C)OCCn1c(-c2cc3ccc4nc3n2CCCCCCC(C)(C)C(=O)N[C@@H]4C)nc2cc(C(=O)N[C@H]3CNCC[C@@H]3F)c(F)cc21
b = COc1cc(C(=O)N2CC3(CCCCNC3)C2)cc2nc(-c3cc4ccc5nc4n3CC(F)(F)CCC[C@@H]3C[C@H]3C(=O)N[C@@H]5C)n(C)c12
Req: // max by IC50 over [ a , b ] When you have decided, please share the label of that item.
Resp: a
(a: 111 nM, b: 46 nM)

P = C[C@H]1NC(=O)[C@@H]2C[C@@]2(F)CCCCCn2c(-c3nc4cc(C(=O)N5C[C@H](N)[C@@H]6CC[C@H]5C6)cc(F)c4n3CC(F)F)cc3ccc1nc32
Q = COc1cc(C(=O)N2CC[C@@H](OC)[C@@H](N)C2)cc2nc(-c3cc4ccc5cc4n3CCCCCc3nccnc3C(=O)N[C@@H]5C)n(C)c12
R = COc1cc(C(=O)N2C[C@H](N)[C@@H]3CC[C@H]2C3)cc2nc(-c3cc4ccc5nc4n3CCCCCc3nc(Cl)ccc3C(=O)N[C@@H]5C)n(C3CC3)c12
Req: Hey, can you sort those compounds up there by IC50, smallest first? Answer format: the labels, ordered as requested.
Resp: P, R, Q
(P: 21 nM, R: 39 nM, Q: 68 nM)

* * *

# Tested On: human PAD4 (Homo sapiens)
# Construct: human PAD4 (NM_012387), A2-P663, was PCR amplified; His-SUMO (N, cleaved yes)
# Assay Text: In vitro PAD4 BAEE biochemical assay
# Condition: BAEE substrate 3 mM, 5 nM PAD4, 2 mM calcium chloride; geometric mean of multiple experiments
Test Readout: IC50 (nM)

A = COc1cc(C(=O)N2C[C@H](N)[C@H](OC)[C@@H](F)C2)cc2nc(-c3cc4ccc5nc4n3CC(F)(F)CCC[C@@H]3C[C@H]3C(=O)N[C@@H]5C)n(C)c12
B = COc1cc(C(=O)N2[C@H]3CC[C@@H]2[C@H](N)C3)cc2nc(-c3cc4ccc5nc4n3CCCCCCC(=O)Nc3cnccc3-5)n(C)c12
C = COc1cc(C(=O)N2C[C@H](N)[C@@H]3CC[C@H]2C3)cc2nc(-c3cc4ccc5nc4n3CC(F)(F)CCCc3ccccc3C(=O)N[C@@H]5C)n(C)c12
D = COc1cc(C(=O)N[C@H]2CNCC[C@@H]2F)cc2nc(-c3cc4ccc5nc4n3CCCCCCC3(CC(F)(F)C3)C(=O)N[C@@H]5C)n(C)c12
Req: List the 4 entries from lowest IC50 to highest IC50 value. Lab note: record answer as labels in requested order.
Resp: C, A, B, D
(C: 13 nM, A: 39 nM, B: 86 nM, D: 150 nM)
